B1: TMEM106C (parent)
chain: YVTTNVSLIPPRSEQLVNFTGKAE

Variants of: B1
assay: protein stability index of a GFP-peptide fusion (GPS, HEK-293T) (PSI 1-6); higher = more stable;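 also: lentivirally expressed fusions sorted by FACS into six bins by GFP to DsRed ratio, PSI derived from sequencing read proportions per bin multiplied by bin number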
details: c terminus: a fixed tail appended
What protein stability index was measured for each of the following?

G21M : 3.92
L16G : 1.81
R12A : 2.85

The following variants each have a reported value; give each one's protein stability index.
1. R12S
2. V6C
3. P10T

// result
1. 2.23
2. 1.82
3. 2.42

Data origin: the supplement of paper PMC10567573
